Test: Equilibrium solubility of the compound in Britton-Robinson buffer at pH 8 after 24 hrs by HPLC analysis
Format: physicochemical
experimentalEndpoint: solubility thermodynamic at 24 h (µg/mL)
Express the result in µg/mL but write the number alone.

Exercise: Please look at this molecule and report its solubility thermodynamic at 24 h: "COc1cccc2c1c(NS(=O)(=O)c1ccc(Cl)s1)nn2Cc1cccc(CNC(=O)C(C)(C)O)c1"
Key: 56

###

Target: C-C chemokine receptor type 4 (Homo sapiens)
Sequence (P51679 whole entry): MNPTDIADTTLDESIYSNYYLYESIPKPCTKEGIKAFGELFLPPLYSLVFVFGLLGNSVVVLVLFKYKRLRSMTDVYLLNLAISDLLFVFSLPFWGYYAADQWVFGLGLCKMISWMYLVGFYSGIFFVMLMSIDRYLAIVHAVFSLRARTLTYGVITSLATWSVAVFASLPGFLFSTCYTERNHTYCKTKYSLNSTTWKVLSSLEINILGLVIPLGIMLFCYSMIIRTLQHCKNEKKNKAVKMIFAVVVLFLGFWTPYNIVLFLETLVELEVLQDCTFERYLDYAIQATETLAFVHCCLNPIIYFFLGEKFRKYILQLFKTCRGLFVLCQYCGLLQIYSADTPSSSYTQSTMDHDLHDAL
Assay: Antagonist activity at CCR4 receptor in human whole blood assessed as F-actin polymerization after 30 mins by FACS-based flow cytometric analysis
Details: read-out: pA2 (converted)
# Kb annotations
Express the result in nM but write the number alone.

Example results:
COc1cccc2c1c(NS(=O)(=O)c1ccc(Cl)s1)nn2Cc1cccc(CNC(=O)[C@@H]2COCCN2)c1; 79.4
COc1cccc2c1c(NS(=O)(=O)c1ccc(Cl)s1)nn2Cc1cccc(CNC(=O)[C@@H]2CCCCN2)c1; 126
CC(=O)NCc1cccc(Cn2nc(NS(=O)(=O)c3ccc(Cl)s3)c3c(Cl)cccc32)c1; 6310

Exercise: Please look at this compound and report its Kb: "COc1cccc2c1c(NS(=O)(=O)c1ccc(Cl)s1)nn2Cc1cccc(CNC(=O)C(C)(C)N)c1"
Key: 141

Exercise: Please look at this compound and report its Kb: "CC(=O)NCc1cccc(Cn2nc(NS(=O)(=O)c3ccc(Cl)s3)c3c(O)cccc32)c1"
Key: 794
